- subject of test: human VDR (Homo sapiens)
- Sequence (P11473 1-427): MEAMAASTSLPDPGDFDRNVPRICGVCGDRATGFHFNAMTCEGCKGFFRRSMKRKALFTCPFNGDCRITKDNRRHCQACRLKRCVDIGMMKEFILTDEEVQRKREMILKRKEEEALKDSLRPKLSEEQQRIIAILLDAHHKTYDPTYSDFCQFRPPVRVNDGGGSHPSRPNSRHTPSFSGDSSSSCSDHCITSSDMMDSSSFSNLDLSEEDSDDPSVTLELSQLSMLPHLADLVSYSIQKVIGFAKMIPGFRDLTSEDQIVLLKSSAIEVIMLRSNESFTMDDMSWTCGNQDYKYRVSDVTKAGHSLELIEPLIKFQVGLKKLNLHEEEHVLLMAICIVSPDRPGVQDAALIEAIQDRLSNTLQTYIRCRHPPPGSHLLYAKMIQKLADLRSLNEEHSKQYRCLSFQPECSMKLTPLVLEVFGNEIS
- Sequence (P19793 1-462 partner): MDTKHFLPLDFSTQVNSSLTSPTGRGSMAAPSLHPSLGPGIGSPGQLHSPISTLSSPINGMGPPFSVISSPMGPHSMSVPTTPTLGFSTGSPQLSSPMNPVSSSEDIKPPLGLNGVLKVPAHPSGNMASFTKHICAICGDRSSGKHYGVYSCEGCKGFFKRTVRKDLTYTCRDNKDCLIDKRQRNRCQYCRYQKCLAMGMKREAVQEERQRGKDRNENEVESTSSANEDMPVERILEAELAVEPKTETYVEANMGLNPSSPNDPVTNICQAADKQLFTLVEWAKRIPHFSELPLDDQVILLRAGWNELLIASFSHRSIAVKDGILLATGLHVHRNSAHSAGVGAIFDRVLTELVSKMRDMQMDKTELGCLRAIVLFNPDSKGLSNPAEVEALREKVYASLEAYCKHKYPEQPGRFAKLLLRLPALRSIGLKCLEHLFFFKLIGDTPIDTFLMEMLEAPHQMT
- method description: Evaluation of VDR transcription activity in human osteoblasts (HOS cells), luciferase reporter
- settings: Activity (EC50, VDR transcription activity), HOS cells transfected with human VDR, human RXRα and DR3 luciferase reporter; 21 hours
Consider the following compounds; for each one, report its EC50.

Return EC50 (reported value) for this compound: C=C1/C(=C\C=C2/CCC[C@]3(C)[C@@H]([C@H](C)CN4CCCC(O)(C(F)F)C4)CC[C@@H]23)C[C@@H](O)C[C@@H]1O (single isomer, unassigned) [Compound C034b] 10 to 100 nM

Please look at this compound and report its EC50: C[C@H](CCN1CC[C@H](F)C1)[C@H]1CC[C@H]2/C(=C/C=C3C[C@@H](O)C[C@H](O)C3)CCC[C@]12C [Compound B014] 10 to 100 nM

State, in one line, measured EC50 of C=C1/C(=C\C=C2/CCC[C@]3(C)[C@@H]([C@@H](C)CN4CCOCC4)CC[C@@H]23)C[C@@H](O)[C@H](C)[C@@H]1O [Compound D003] 10 to 100 nM

For the compound C=C1/C(=C\C=C2/CCC[C@]3(C)[C@@H]([C@H](C)CN4CC[C@@H](C(F)F)C4)CC[C@@H]23)C[C@@H](O)[C@H](C)[C@@H]1O [Compound B025] , report EC50. 10 to 100 nM

Dear colleague, please send me the reported EC50 for C[C@H](CCN1CC(OC(F)F)C1)[C@H]1CC[C@H]2/C(=C/C=C3C[C@@H](O)C[C@H](O)C3)CCC[C@]12C [Compound A025] when you can. 100 to 1000 nM

Return EC50 (reported value) for this compound: C[C@H](CCCN1CC[C@H](C(F)F)C1)[C@H]1CC[C@H]2/C(=C/C=C3C[C@@H](O)C[C@H](O)C3)CCC[C@]12C [Compound B084] 10 to 100 nM

State its EC50 for this compound: C=C1[C@H](O)CC(=C/C=C2\CCC[C@]3(C)[C@@H]([C@H](C)CN4CC[C@@H](C(C)(F)F)C4)CC[C@@H]23)C[C@H]1O [Compound B035] 1 to 10 nM

Note EC50 for the compound shown: C=C1[C@H](O)CC(=C/C=C2\CCC[C@]3(C)[C@@H]([C@H](C)CN4CCC[C@](C)(O)C4)CC[C@@H]23)C[C@H]1O [Compound C041] < 1 nM

Supply EC50 value. Item: C=C1[C@H](O)CC(=C/C=C2\CCC[C@]3(C)[C@@H]([C@H](C)CN4CC[C@@H](OC(F)F)C4)CC[C@@H]23)C[C@H]1O [Compound B050] 1 to 10 nM

Tell me its EC50 given C[C@H](CCN1CC[C@H](CC(F)F)C1)[C@H]1CC[C@H]2/C(=C/C=C3C[C@@H](O)C[C@H](O)C3)CCC[C@]12C [Compound B082] as the entry. 10 to 100 nM

Output measured EC50 for this item: C=C1/C(=C\C=C2/CCC[C@]3(C)[C@@H]([C@H](C)CN4CCCC(C)(O)C4)CC[C@@H]23)C[C@@H](O)C[C@@H]1O (single isomer, unassigned) [Compound C037b] 10 to 100 nM

For the compound C[C@H](CCN1CC[C@@H](C(F)F)C1)[C@H]1CC[C@H]2/C(=C/C=C3C[C@@H](O)C[C@H](O)C3)CCC[C@]12C [Compound B081] , give its reported EC50. 10 to 100 nM

Specify reported EC50 for the compound shown: C=C1/C(=C\C=C2/CCC[C@]3(C)[C@@H]([C@@H](C)CN4CCC(C(F)F)CC4)CC[C@@H]23)C[C@@H](O)C[C@@H]1O [Compound C017] 10 to 100 nM

Item C=C1[C@H](O)CC(=C/C=C2\CCC[C@]3(C)[C@@H]([C@@H](C)CN4CCC(C(F)(F)F)CC4)CC[C@@H]23)C[C@H]1O [Compound C060] : provide EC50 1 to 10 nM

Supply recorded EC50 for C[C@H](CN1CC(O)(C(F)(F)F)C1)[C@H]1CC[C@H]2/C(=C/C=C3C[C@@H](O)C[C@H](O)C3)CCC[C@]12C [Compound A010] here. 1 to 10 nM

# return recorded EC50 for input C=C1[C@H](O)CC(=C/C=C2\CCC[C@]3(C)[C@@H]([C@@H](C)CN4CCC(C(F)F)CC4)CC[C@@H]23)C[C@H]1O [Compound C019] 1 to 10 nM

Consider the compound C[C@H](CN1CC(OC(F)(F)F)C1)[C@H]1CC[C@H]2/C(=C/C=C3C[C@@H](O)C[C@H](O)C3)CCC[C@]12C [Compound A013] . State its measured EC50. 100 to 1000 nM

Using known records, supply EC50 for C=C1[C@H](O)CC(=C/C=C2\CCC[C@]3(C)[C@@H]([C@H](C)CCN4CC[C@@H](CCC(F)F)C4)CC[C@@H]23)C[C@H]1O [Compound B094] 10 to 100 nM

Give reported EC50 value for C=C1[C@H](O)CC(=C/C=C2\CCC[C@]3(C)[C@@H]([C@H](C)CN4CC[C@H](OC(F)F)C4)CC[C@@H]23)C[C@H]1O [Compound B049] 1 to 10 nM

Answer with reported EC50 of C[C@H](CN1CC[C@@H](C(F)F)C1)[C@H]1CC[C@H]2/C(=C/C=C3C[C@@H](O)C[C@H](O)C3)CCC[C@]12C [Compound B026] 10 to 100 nM

State, in one line, measured EC50 of C=C1[C@H](O)CC(=C/C=C2\CCC[C@]3(C)[C@@H]([C@H](C)CN4CCOC[C@@H]4C)CC[C@@H]23)C[C@H]1O [Compound D015] 10 to 100 nM

Using known records, supply EC50 for C=C1[C@H](O)CC(=C/C=C2\CCC[C@]3(C)[C@@H]([C@H](C)CN4CC(OC(F)F)C4)CC[C@@H]23)C[C@H]1O [Compound A018] 1 to 10 nM

Return value of EC50 for input COC1(C(F)(F)F)CN(C[C@@H](C)[C@H]2CC[C@H]3/C(=C/C=C4C[C@@H](O)C[C@H](O)C4)CCC[C@]23C)C1 [Compound A012] , no commentary. 10 to 100 nM
